- MEASUREMENT DESCRIPTION: NCI Yeast Anticancer Drug Screen. Data for the mlh1 rad18 strain (AID 175)
- COND: S. cerevisiae mlh1 rad18 strain growth inhibition; at 50.0 µM (retest, dose inferred, filed as 5.0); active compounds read high
Compounds without any hit were thinned out: in the full panel of roughly 79,000, 15% have a hit. Residues, ends and D or L forms follow the SMILES beside them. *: point of attachment. Fmoc = O=C(OCC1c2ccccc2-c2ccccc21)*; Boc = CC(C)(C)OC(=O)*
Exercise: state measured growth inhibition for each of the compounds provided.
Numbers only, in %.

What growth inhibition value was documented for this compound, `O=C1c2cccc3cccc(c23)C(=O)N1O` ?
99

What growth inhibition value was documented for this compound, `CC(C)(Br)C(=O)/C=C/c1ccccc1` ?
95

Batch lookup, growth inhibition per entry.
1. Cc1cccc2c(NCCCN(C)C)c3c([N+](=O)[O-])ccc(C)c3nc12
2. CC(C)(C)OC(=O)NCCCCC(NC(=O)C(Cc1c[nH]c2ccccc12)NC(=O)OCC1c2ccccc2-c2ccccc21)C(=O)O (centres undefined) (Fmoc-Trp-Lys(Boc)-OH; configuration not given here)

1. 61
2. 50

Batch lookup, growth inhibition per entry.
1. CC(C)=CCC/C(C)=C/CN1C(=O)C=CC1=O
2. COc1ccc2nc(CCc3ccccc3)ccc2c1
3. CC(C)(CN1CCCCC1)C(=O)CC(SCCS(=O)(=O)O)c1ccccc1 (centres undefined)
4. O=C(O)/C=C\C(=O)Nc1ccc2c(c1)Cc1cc(Cl)ccc1-2

1: 98; 2: 70; 3: -1; 4: 59

Batch lookup, growth inhibition per entry.
1. CC1(C)C(O)OC(O)C1(C)C (centres undefined)
2. O=[N+]([O-])c1cn[n+]([O-])c2ccccc12
3. CCC[CH2][Sn]([CH2]CCC)([CH2]CCC)/[C](=C/[Si](C)(C)c1ccccc1)c1ccc2c(c1)OCO2
4. CC(=O)/C=C/c1cc([N+](=O)[O-])ccc1O
5. Nc1ccc(S(=O)(=O)Nc2nc3c(c(=O)[nH]2)CCCC3)cc1
6. Nc1cccc(-c2cc[cH-]c2)c1.[Fe+2].c1cc[cH-]c1
7. O=C1SS(=O)c2ccccc21 (centres undefined)
8. CCCCCCCSCC1C(=O)C23C(O)C1CCC2C12COC3(O)C(O)C1C(C)(C)CCC2O (centres undefined)

1. 56
2. 97
3. 44
4. 97
5. 99
6. 39
7. 95
8. 94

Batch lookup, growth inhibition per entry.
1. O=[N+]([O-])c1cccc2nc3ccccc3c(NCCCN3CCCCC3)c12
2. O=[N+]([O-])c1cc(Cl)ccc1S(=O)(=O)c1ccc(Cl)cc1[N+](=O)[O-]
3. N#[N+]c1c([O-])c2ccccc2c2ccccc12

1: 99; 2: 91; 3: 50

---

- MEASUREMENT DESCRIPTION: NCI Yeast Anticancer Drug Screen. Data for the rad18 strain (AID 177)
- COND: S. cerevisiae rad18 mutant growth inhibition; at 3.7 µM; active compounds read high
- Description: Growth inhibition of yeast strains with defined genetic alterations is measured as a screen for potential anti-cancer activity. Selected strains with alterations in DNA damage repair or cell cycle control were exposed to compounds and growth inhibition was measured relative to vehicle treated controls. The strain used in this assay is rad18
Compounds without any hit were thinned out: in the full panel of roughly 79,000, 15% have a hit.
QUANTITY: growth inhibition (%)
Numbers only, in %.

Please review the following examples before continuing.
What growth inhibition value was documented for this compound, O=C1C2=C(c3ccccc31)C(c1ccccc1)N1C(=O)CSC1=N2 (stereo not given) ?
10

What growth inhibition value was documented for this compound, `S=C1N(c2ccc(Cl)cc2)C2=C(N=Nc3ccccc3)C(=Nc3ccccc3S2)N1c1ccccn1` ?
16

Batch lookup, growth inhibition per entry.
1. CCS(=O)(=O)Nc1ccc(Nc2c3ccccc3nc3ccccc23)c(OC)c1
2. Cc1ccnc2c(O)cccc12
3. N#Cc1nc(Nc2ccc(Cl)cc2)sc1N

[-12, 60, -17]

---

- MEASUREMENT DESCRIPTION: NCI Yeast Anticancer Drug Screen. Data for the sgs1 mgt1 strain (AID 161);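 further: 0% = growth of cultures given vehicle only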
- COND: S. cerevisiae sgs1 mgt1 strain, at 5.0 µM (retest, dose inferred, filed as 0.5), active compounds read high
Compounds without any hit were thinned out: in the full panel of roughly 79,000, 15% have a hit.
Exercise: state measured growth inhibition for each of the compounds provided.
Numbers only, in %.

Please review the following examples before continuing.
What growth inhibition value was documented for this compound, `Cc1ccnc2c(O)cccc12` ?
73

What growth inhibition value was documented for this compound, `CC(C)(C)c1ccc2c(c1)C(=O)c1ccccc1C2=O` ?
9

// below: growth inhibition requested for another compound
What growth inhibition value was documented for this compound, `COc1ccc(-c2cc(-c3cc(C)cc(Cl)c3O)nc3[nH]c(=S)[nH]c(=S)c23)cc1` ?
-13

---

- MEASUREMENT DESCRIPTION: NCI Yeast Anticancer Drug Screen. Data for the rad52 strain (AID 147);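 further: 0% = growth of vehicle-treated control cultures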
- COND: S. cerevisiae rad52 mutant growth inhibition; at 100.0 µM
Compounds without any hit were thinned out: in the full panel of roughly 79,000, 15% have a hit. Active and inactive are the calls of the source. No stated cut-off is given here; in the data, active means growth inhibition above about 70%; inactive means the rest.
Pick one: active, inactive

Observe how each entry below is paired with its result.
Recorded test outcome, item `c1ccc([P+](CCN2Cc3ccccc3C2)(c2ccccc2)c2ccccc2)cc1`
active

Recorded test outcome, item `CO[C@@]1([C@@H](Cl)c2ccccc2)C(=O)N(C)/C(=C\c2ccccc2)C(=O)N1C`
inactive

Recorded test outcome, item `O=C1c2ccccc2-c2cc3ccccc3c(=O)n21`
active

Recorded test outcome, item CN1C(=O)C(CC(=O)O)NC1=S (stereo not given)
inactive

Recorded test outcome, item `CN1CCN(C(=O)c2cccc3cccc(C(=O)O)c23)CC1`
active

Recorded test outcome, item `CCCCCCCCCC(=O)N(CCC)CCC`
active

Recorded test outcome, item `CN(N=O)C(=O)Nc1ccc(C(=O)O)cc1`
inactive

Recorded test outcome, item `CCOC(=O)Nc1ccc(C)c(NC(=O)OCC)c1`
inactive

***
Recorded test outcome, item C/C(=N\OCC(O)CNCCSCc1ccccc1)c1ccccc1Cl (stereo not given)
active

Recorded test outcome, item `Nc1cccc(-c2cc[cH-]c2)c1.[Fe+2].c1cc[cH-]c1`
active

---

- MEASUREMENT DESCRIPTION: NCI Yeast Anticancer Drug Screen. Data for the mlh1 strain (AID 171);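 further: 0% = growth of vehicle-treated control cultures of the same strain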
- COND: S. cerevisiae mlh1 strain growth inhibition; at 33.0 µM
This is part of a sample that, as a whole, favours compounds with a hit. Of some 79,000 tested, about 15% had one in any assay. Active and inactive are the calls of the source. Rule as the data show it: active = growth inhibition above about 70%; inactive = the rest.
Pick one: true (active), false (inactive)

Observe how each entry below is paired with its result.
Recorded test outcome, item `Cc1cc(Cl)ccc1NC(=O)/C(Cl)=C(/Cl)C(=O)O`
false

Recorded test outcome, item `CCN(CC)CCCNc1ccc([N+](=O)[O-])c2nc3ccc(OC)cc3c(NCCCN(CC)CC)c12`
false

Recorded test outcome, item `CCN(CC)C(=S)N/N=C(\C)c1ccccc1O`
true

We now examine a further compound.
Recorded test outcome, item O=CC1(F)CC1(c1ccccc1)c1ccccc1 (centres undefined)
false

---

- MEASUREMENT DESCRIPTION: NCI Yeast Anticancer Drug Screen. Data for the rad50 strain (AID 155);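 further: 0% = growth of vehicle-only cultures of the same strain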
- COND: S. cerevisiae rad50 strain growth inhibition; at 3.7 µM; active compounds read high
The panel holds about 79,000 compounds, 15% with a hit somewhere; the sample as a whole holds those more often. Active and inactive are the calls of the source. Cut-off read from the data, not from the text of the source: active = growth inhibition above about 70%; inactive = the rest.
Exercise: state measured growth inhibition for each of the compounds provided.

Please review the following examples before continuing.
What growth inhibition value was documented for this compound, `CCN(CC)CCC(=O)Nc1ccc2sc3ccccc3c(=O)c2n1` ?
53% (inactive)

What growth inhibition value was documented for this compound, `O=C1C=CC(=Nc2cccc3c2-c2ccccc2C3=O)O1` ?
19% (inactive)

What growth inhibition value was documented for this compound, CCC(=O)C1=C(O)c2cc(OC)ccc2CC1C(=O)OC (configuration not stated) ?
-1% (inactive)

What growth inhibition value was documented for this compound, `O=S(=O)(c1ccccc1)N1CN2CN(C1)CN(S(=O)(=O)c1ccccc1)C2` ?
-7% (inactive)

What growth inhibition value was documented for this compound, `O=c1cccccc1[O-].O=c1cccccc1[O-].O=c1cccccc1[O-].[Eu+3]` ?
-29% (inactive)

Batch lookup, growth inhibition per entry.
1. CC1(C)CC(=O)C(/C=N/c2nc(-c3ccc(Br)cc3)cs2)=C(O)C1
2. N#CC1OB(O)c2ccccc21 (configuration not stated)
3. O=C(/C=C/c1ccsc1)c1cccs1

32% (inactive)
-10% (inactive)
19% (inactive)

Batch lookup, growth inhibition per entry.
1. COc1c2c(c3c(c1CCC(=O)O)OC(C)(C)C=C3)OC(C)(C)C=C2
2. C[N+](C)([O-])CCCNc1c2ccccc2nc2cccc([N+](=O)[O-])c12
3. CC(C)=CCc1c2c(c(O)c3c(=O)c(-c4ccc(O)c(O)c4)coc13)C=CC(C)(C)O2

-3% (inactive)
68% (inactive)
-17% (inactive)
